Molecular target: SMARCA2 (Homo sapiens, UniProt P51531)
Sequence (P51531 whole entry): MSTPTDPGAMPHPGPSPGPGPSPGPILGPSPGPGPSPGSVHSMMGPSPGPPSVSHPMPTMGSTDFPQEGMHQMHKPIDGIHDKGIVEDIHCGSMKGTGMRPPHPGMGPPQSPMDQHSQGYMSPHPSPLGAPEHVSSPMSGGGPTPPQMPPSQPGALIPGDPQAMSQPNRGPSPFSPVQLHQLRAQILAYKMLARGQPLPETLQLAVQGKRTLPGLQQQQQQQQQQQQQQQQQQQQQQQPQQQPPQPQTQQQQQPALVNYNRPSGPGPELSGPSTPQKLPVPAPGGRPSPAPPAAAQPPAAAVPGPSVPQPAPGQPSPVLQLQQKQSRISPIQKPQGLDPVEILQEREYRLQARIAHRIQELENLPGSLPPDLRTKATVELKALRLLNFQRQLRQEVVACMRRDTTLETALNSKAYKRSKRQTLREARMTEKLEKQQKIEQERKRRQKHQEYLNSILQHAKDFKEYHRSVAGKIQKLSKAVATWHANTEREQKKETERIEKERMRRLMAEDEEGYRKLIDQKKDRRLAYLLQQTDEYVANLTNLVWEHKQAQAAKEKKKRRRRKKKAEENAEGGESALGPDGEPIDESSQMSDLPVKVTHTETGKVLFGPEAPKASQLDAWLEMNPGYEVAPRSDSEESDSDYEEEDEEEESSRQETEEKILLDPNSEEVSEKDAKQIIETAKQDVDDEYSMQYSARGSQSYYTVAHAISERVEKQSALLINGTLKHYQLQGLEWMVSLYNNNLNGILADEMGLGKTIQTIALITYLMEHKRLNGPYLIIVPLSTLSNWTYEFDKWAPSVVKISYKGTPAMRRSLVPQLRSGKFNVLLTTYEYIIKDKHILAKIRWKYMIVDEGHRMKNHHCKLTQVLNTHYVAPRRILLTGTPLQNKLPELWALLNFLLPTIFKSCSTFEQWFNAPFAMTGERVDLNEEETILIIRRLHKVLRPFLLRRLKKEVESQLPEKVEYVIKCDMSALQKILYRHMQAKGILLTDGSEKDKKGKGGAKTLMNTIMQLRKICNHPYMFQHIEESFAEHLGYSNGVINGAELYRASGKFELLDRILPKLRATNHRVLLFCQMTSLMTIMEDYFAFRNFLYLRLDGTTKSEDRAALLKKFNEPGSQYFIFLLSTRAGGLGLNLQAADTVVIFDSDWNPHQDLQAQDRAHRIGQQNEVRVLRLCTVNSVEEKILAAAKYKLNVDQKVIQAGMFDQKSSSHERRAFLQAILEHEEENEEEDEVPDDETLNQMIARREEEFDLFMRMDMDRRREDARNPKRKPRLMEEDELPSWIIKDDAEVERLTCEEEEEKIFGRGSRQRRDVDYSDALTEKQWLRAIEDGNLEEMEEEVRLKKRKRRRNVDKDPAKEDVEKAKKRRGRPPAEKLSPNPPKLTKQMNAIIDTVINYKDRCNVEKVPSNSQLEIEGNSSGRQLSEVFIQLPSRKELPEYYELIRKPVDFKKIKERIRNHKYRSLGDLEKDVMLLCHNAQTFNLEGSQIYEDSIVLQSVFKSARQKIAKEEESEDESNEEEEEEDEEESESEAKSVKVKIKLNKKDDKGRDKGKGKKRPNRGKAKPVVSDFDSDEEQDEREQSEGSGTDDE
Experiment: SMARCA2 degradation in NCI-H838 cells by Western blot
Assay type: cell-based
Parameters: endogenous in cells; host or cells: NCI-H838 (ATCC CRL-5844)
Conditions: 16 hours
Would you mind labelling by SMARCA2 @ 100 nM (% SMARCA2 degradation)? At or over 40% is TRUE, under is FALSE.

Molecule	Label value
Cc1cccc(-c2cc(N3CCN(CC(=O)N[C@H](C(=O)N4C[C@H](O)C[C@H]4C(=O)N[C@@H](C)c4ccc(-c5scnc5C)cc4)C(C)(C)C)CC3)c(N)nn2)c1O [Compound 91]	TRUE
Nc1nnc(-c2ccccc2O)cc1N1CCN(CCCC(=O)Nc2cccc3c2C(=O)N(C2CCC(=O)NC2=O)C3=O)CC1 (centres unmarked) [Compound 70]	FALSE
Cc1ncsc1-c1ccc([C@H](C)NC(=O)[C@@H]2C[C@@H](O)CN2C(=O)[C@@H](NC(=O)Cn2cc(-c3cc(-c4cccc(F)c4O)nnc3N)cn2)C(C)(C)C)cc1 [Compound 62]	FALSE
Nc1nnc(-c2ccccc2O)cc1N1CCN(CCC(=O)Nc2cccc3c2C(=O)N(C2CCC(=O)NC2=O)C3=O)CC1 (centres unmarked) [Compound 69]	FALSE
Cc1ncsc1-c1ccc([C@H](C)NC(=O)[C@@H]2C[C@@H](O)CN2C(=O)[C@@H](NC(=O)CN2CCN(c3cc(-c4cccc(F)c4O)nnc3N)CC2)C(C)(C)C)cc1 [Compound 90]	TRUE
Cc1ncsc1-c1ccc([C@H](C)NC(=O)[C@@H]2C[C@@H](O)CN2C(=O)[C@@H](NC(=O)CC2CCN(c3cc(-c4cc(F)ccc4F)nnc3N)CC2)C(C)(C)C)cc1 [Compound 100]	FALSE
Cc1ncsc1-c1ccc([C@H](C)NC(=O)[C@@H]2C[C@@H](O)CN2C(=O)[C@@H](NC(=O)CN2CCN(c3cc(-c4ccccc4O)nnc3N)CC2)C(C)(C)C)cc1.Cl [Compound 65]	TRUE
Cc1ncsc1-c1ccc([C@H](C)NC(=O)[C@@H]2C[C@@H](O)CN2C(=O)[C@@H](NC(=O)CN2C3CCC2CN(c2cc(-c4ccccc4O)nnc2N)C3)C(C)(C)C)cc1 [Compound 61]	FALSE

Prompt: Confirm if SMARCA2 @ 100 nM (% SMARCA2 degradation) reported for the molecule Cc1ncsc1-c1ccc([C@H](C)NC(=O)[C@@H]2C[C@@H](O)CN2C(=O)[C@@H](NC(=O)CN2CCN(c3cc(-c4ccccc4O)nnc3N)CC2)C(C)(C)C)cc1 [Compound 43] is 40% or above.
Completion: TRUE

Prompt: Same question, Cc1ncsc1-c1ccc([C@H](C)NC(=O)[C@@H]2C[C@@H](O)CN2C(=O)[C@@H](NC(=O)CN2CCN(c3cc(-c4ccccc4N)nnc3N)CC2)C(C)(C)C)cc1 [Compound 93] this time
Completion: TRUE

Prompt: What do we get for Cc1ncsc1-c1ccc([C@H](C)NC(=O)[C@@H]2C[C@@H](O)CN2C(=O)[C@@H](NC(=O)C(C)N2CCN(c3cc(-c4ccccc4O)nnc3N)CC2)C(C)(C)C)cc1 (single isomer, unassigned) [Compound 58] ?
Completion: TRUE

----------
Below, each entry is listed alongside its reported SMARCA2 @ 100 nM (% SMARCA2 degradation).
Biological target: UniProt:P51531
Experiment: SMARCA2 degradation in NCI-H838 cells by Western blot
Assay type: cell-based
Design: endogenous in cells; host or cells: NCI-H838 (ATCC CRL-5844)
Details: 16 hours
Hi, when you answer, please include the unit after the number. Thanks!

Prompt: Field request: SMARCA2 @ 100 nM (% SMARCA2 degradation) | item: Cc1ncsc1-c1ccc([C@H](C)NC(=O)[C@@H]2C[C@@H](O)CN2C(=O)[C@@H](NC(=O)CN2CC=C(c3cc(-c4ccccc4O)nnc3N)CC2)C(C)(C)C)cc1 [Compound 82]
Completion: 61%

Prompt: Ok, now Cc1ncsc1-c1ccc([C@H](C)NC(=O)[C@@H]2C[C@@H](O)CN2C(=O)[C@@H](NC(=O)OC2CCN(c3cc(-c4ccccc4O)nnc3N)CC2)C(C)(C)C)cc1 [Compound 80]
Completion: 13%

Prompt: What do you get for Cc1ncsc1-c1ccc(C(NC(=O)[C@@H]2C[C@@H](O)CN2C(=O)[C@@H](NC(=O)CC2CCN(c3cc(-c4cccc(F)c4O)nnc3N)CC2)C(C)(C)C)C(F)(F)F)cc1 (single isomer, unassigned) [Compound 78] ?
Completion: 26%

Prompt: Next entry: Cc1ncsc1-c1ccc([C@H](C)NC(=O)[C@@H]2C[C@@H](O)CN2C(=O)[C@@H](NC(=O)C=C2CCN(c3cc(-c4ccccc4O)nnc3N)CC2)C(C)(C)C)cc1 [Compound 103]
Completion: 64%

Prompt: // next record Cc1ncsc1-c1ccc([C@H](C)NC(=O)[C@@H]2C[C@@H](O)CN2C(=O)[C@@H](NC(=O)CN2CCN(c3cc(-c4c(O)ccc(F)c4F)nnc3N)CC2)C(C)(C)C)cc1 [Compound 96]
Completion: 76%

Value source: patent US12371426B2
